Listed compounds paired with reported inhibition at 10 µM
# target.entity: STK36 (Homo sapiens)
# Construct: purchased DiscoverX (KINOMEscan)
# Sequence (Q9NRP7 whole entry): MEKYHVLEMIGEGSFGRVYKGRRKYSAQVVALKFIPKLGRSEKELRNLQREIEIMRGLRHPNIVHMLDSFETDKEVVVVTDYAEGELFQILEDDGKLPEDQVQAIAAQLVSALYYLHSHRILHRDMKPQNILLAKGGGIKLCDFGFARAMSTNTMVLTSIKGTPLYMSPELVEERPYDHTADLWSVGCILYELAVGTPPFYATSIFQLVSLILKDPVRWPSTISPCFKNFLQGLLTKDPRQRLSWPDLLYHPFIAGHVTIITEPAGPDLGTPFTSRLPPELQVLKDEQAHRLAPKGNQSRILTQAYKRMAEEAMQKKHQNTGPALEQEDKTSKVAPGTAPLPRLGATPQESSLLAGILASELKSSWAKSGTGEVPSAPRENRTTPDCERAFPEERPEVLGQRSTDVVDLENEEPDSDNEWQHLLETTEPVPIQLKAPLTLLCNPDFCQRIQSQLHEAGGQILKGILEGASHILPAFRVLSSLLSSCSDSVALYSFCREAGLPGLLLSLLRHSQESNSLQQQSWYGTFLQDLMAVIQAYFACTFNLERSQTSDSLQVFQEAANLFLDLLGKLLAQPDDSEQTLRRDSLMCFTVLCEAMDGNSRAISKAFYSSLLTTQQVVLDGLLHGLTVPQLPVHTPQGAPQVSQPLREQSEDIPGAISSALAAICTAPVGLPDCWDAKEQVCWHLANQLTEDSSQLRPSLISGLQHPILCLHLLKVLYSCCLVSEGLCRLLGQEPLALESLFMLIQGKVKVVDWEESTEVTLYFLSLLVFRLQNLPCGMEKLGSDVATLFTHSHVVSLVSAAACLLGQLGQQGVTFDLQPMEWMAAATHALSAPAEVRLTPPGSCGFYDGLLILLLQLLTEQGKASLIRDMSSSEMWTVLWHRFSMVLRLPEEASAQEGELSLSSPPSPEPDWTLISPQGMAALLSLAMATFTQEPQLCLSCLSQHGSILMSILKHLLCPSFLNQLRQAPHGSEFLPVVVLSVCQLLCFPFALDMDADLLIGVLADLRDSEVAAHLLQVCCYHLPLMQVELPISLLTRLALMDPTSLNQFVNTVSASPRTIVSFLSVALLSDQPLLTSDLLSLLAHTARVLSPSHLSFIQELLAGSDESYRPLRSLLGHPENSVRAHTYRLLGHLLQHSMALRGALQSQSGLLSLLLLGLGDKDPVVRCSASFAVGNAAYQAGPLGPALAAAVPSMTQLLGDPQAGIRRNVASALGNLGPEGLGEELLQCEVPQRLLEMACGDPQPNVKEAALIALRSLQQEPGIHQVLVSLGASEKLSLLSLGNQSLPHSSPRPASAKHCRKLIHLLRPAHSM
# assay.details: KINOMEscan competitive binding
# test.context: n=1, read-out: Percent inhibition, STK36
Give the number first and the unit second.

These recorded examples may help you get a feel for the data.
{"columns": ["compound", "measured.quantity", "result"],
 "data": [
  ["Fc1cccc(COc2ccc(Nc3ncnc4c3CN(CCN3CCOCC3)CC4)cc2Cl)c1 [Compound 6]", "inhibition at 10 µM", "0%"],
  ["Cc1ccc(O)cc1Nc1ccnc(Nc2cccc(C(N)=O)c2)n1 [Compound 3]", "inhibition at 10 µM", "98.4%"],
  ["c1ccc(COc2cccc(-c3ccnc4[nH]ccc34)c2)cc1 [Compound 9]", "inhibition at 10 µM", "0%"]
]}

Record request: inhibition at 10 µM value, item Nc1ncc2c(-c3ccncc3)c[nH]c2n1 [Compound 11]
0%

Item COc1cc(Nc2nccc(-c3sc(N)nc3-c3cccc(NC(=O)c4c(F)cccc4F)c3)n2)cc(OC)c1OC [Compound 7] has what recorded inhibition at 10 µM?
100%

---

# target.entity: Aurora kinase A (Homo sapiens, UniProt O14965)
# Construct: purchased DiscoverX (KINOMEscan)
# Sequence (O14965 whole entry): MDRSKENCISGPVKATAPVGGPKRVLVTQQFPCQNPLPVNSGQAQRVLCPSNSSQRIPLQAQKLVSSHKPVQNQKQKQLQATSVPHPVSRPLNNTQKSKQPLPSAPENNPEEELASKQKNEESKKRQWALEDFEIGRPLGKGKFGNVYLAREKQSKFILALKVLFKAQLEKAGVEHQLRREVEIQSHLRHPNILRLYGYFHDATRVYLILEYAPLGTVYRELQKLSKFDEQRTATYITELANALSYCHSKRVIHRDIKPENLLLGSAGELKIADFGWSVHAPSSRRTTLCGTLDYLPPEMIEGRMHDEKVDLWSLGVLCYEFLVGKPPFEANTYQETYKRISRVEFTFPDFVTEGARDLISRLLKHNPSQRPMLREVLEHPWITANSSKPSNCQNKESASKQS
# assay.details: KINOMEscan competitive binding
# test.context: 10 µM, n=1; kinase AURKA; read-out: Percent inhibition AURKA
The following compounds are shown together with reported inhibition at 10 µM values.
Expressed in %, but write only the number.

Some compounds with recorded inhibition at 10 µM:
{"columns": ["structure.as.smiles", "unit.name", "inhibition at 10 µM"],
 "data": [
  ["c1ccc(COc2cccc(-c3ccnc4[nH]ccc34)c2)cc1", "%", 0],
  ["CN1CCN(c2ccc(Nc3nccc(-c4cnn5ncccc45)n3)cc2C#N)CC1", "%", 96.7],
  ["Nc1ncc2c(-c3ccncc3)c[nH]c2n1", "%", 0],
  ["COc1cc(Nc2nccc(-c3sc(N)nc3-c3cccc(NC(=O)c4c(F)cccc4F)c3)n2)cc(OC)c1OC", "%", 99.5]
]}

What value of inhibition at 10 µM on Aurora kinase A (Homo sapiens, UniProt O14965) does `Clc1ccc(Nc2ncc(-c3ccccc3)s2)cc1` have?
0

Identify the measured inhibition at 10 µM of `C[C@@H](Oc1cc(-c2cnc3ccccn23)sc1C(N)=O)c1ccccc1Cl` for Aurora kinase A (Homo sapiens, UniProt O14965).
0

# get_value(readout= inhibition at 10 µM, system= Aurora kinase A (Homo sapiens, UniProt O14965)) for `Cc1ccc(O)cc1N(C)c1ccnc(Nc2cccc(S(N)(=O)=O)c2)n1`
79.6

Tell me reported inhibition at 10 µM for `Cc1ccc(O)cc1Nc1ccnc(Nc2cccc(C(N)=O)c2)n1` , tested with Aurora kinase A (Homo sapiens, UniProt O14965).
91.3

Given the entry `Fc1cccc(COc2ccc(Nc3ncnc4c3CN(CCN3CCOCC3)CC4)cc2Cl)c1` , what inhibition at 10 µM was observed with Aurora kinase A (Homo sapiens, UniProt O14965)?
0

API: value(readout= inhibition at 10 µM, system= Aurora kinase A (Homo sapiens, UniProt O14965), query= `COc1ccc(Nc2nccc(-c3cnn4ncccc34)n2)cc1` )
91.1

---

# target.entity: PDGFRα (Homo sapiens, UniProt P16234)
# Construct: purchased DiscoverX (KINOMEscan)
# Sequence (P16234 24-1089): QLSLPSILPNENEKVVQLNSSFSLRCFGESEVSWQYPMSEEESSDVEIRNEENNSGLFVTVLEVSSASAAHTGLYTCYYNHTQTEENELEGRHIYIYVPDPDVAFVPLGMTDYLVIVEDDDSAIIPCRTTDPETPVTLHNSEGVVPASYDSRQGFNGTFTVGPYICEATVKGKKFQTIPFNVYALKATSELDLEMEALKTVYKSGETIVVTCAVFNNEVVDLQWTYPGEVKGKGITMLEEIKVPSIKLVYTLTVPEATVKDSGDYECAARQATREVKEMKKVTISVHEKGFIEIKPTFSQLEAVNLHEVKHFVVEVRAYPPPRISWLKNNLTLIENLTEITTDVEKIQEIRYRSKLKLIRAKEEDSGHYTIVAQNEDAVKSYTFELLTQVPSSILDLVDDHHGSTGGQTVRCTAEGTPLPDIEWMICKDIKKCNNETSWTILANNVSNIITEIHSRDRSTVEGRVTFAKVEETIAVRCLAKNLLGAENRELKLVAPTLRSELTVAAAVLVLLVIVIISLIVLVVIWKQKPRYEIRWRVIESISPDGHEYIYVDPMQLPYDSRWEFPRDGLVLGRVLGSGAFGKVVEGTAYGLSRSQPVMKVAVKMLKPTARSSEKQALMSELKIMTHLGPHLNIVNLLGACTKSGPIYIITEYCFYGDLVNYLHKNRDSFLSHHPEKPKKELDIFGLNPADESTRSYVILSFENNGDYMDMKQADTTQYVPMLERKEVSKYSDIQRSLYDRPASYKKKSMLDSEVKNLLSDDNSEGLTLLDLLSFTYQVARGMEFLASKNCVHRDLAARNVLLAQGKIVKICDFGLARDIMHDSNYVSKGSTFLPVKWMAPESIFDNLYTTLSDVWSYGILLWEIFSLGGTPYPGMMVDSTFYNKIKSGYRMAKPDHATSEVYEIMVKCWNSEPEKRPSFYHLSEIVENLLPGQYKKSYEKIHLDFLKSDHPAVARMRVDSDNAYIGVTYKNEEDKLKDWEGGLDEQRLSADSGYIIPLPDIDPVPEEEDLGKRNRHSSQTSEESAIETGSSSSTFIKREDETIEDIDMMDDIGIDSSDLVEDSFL
# assay.details: KINOMEscan competitive binding
# test.context: KINOMEscan, 10 µM, n=1; read-out: Percent inhibition, PDGFRA
Reported inhibition at 10 µM values for the following compounds.
Give a bare numeral; the unit % is implied.

In the examples that follow, each entry is paired with its recorded inhibition at 10 µM.
{"columns": ["compound", "inhibition at 10 µM, %"],
 "data": [
  ["Nc1ncc2c(-c3ccncc3)c[nH]c2n1 [Compound 11]", 100],
  ["c1ccc(COc2cccc(-c3ccnc4[nH]ccc34)c2)cc1 [Compound 9]", 0]
]}

Now look at this entry.
Form field: reported inhibition at 10 µM of Cc1ccc(O)cc1N(C)c1ccnc(Nc2cccc(S(N)(=O)=O)c2)n1 [Compound 4]
100
